# Tested on: COLO 205 colon
# Procedure Details: NCI tumour cell line growth inhibition, 48 h
Test Readout: TGI

Solved cases below.
>>> recorded_measurement("COC1(OC)C(N(C)C)=C(Cl)C(=O)/C1=C/C=O")
"> 100 µM"
>>> recorded_measurement("Cc1nn(-c2ccc(Cl)cc2)c2nc3c(nc12)C(=O)c1ccccc1-3")
"> 100 µM"
>>> recorded_measurement("CC1CCC(C(C)C)C(OC(=O)NCn2cc(-c3ccccc3)nn2)C1 (stereo not drawn)")
"> 100 µM"

Here's the next entry for you.
Form field - read-out: TGI; system: COLO 205 colon; submitted item: CCOC(=O)NC(Nc1ccc(S(=O)(=O)Nc2nc(C)cc(C)n2)cc1)(C(=O)OCC)C(F)(F)F (stereo not drawn) > 100 µM
